test system: MS2 coat protein; test: apparent KD of MS2 coat protein, switch ON state; designed switch direction (-1 OFF switch, 1 ON switch): 1; higher = weaker reporter binding; conditions: FMN input: 0 or 200 uM; Eterna round: R93 (includes R88 designs)
READOUT LABEL: apparent KD of MS2 coat protein (nM)
The reply should contain only the number, in nM.

Known results for sequences:
* AAAAAAAAAACUGAGGAUAUGAAAUAAUAGACAUGAGGAUCACCCAUGUUUUCGGUCGAAAAAAUGCAGAAGGCAGAAAAAAAAAA [JR_SameState2_Sub3] | 19.4
* GGAGUACAUGAGGAUCACCCAUGUUGGAACGAAGUAGGAUAUGUACAAUAUUAAAUAAAAACAGAAGGACUAAUAA [Meow] | 30.4
* AAUAACUAUAACUAGGAUAUCGGAAAUAAGACAUGAGGAUCACCCAUGUAAUAAGACAAAAUAUACGAGAAGGAGUAGGGUGAAA [JR_SS002_Sub012] | 61.2
* AAGAAACAUGAGGAUCACCCAUGUAAGAUAAACACAGGAUAUGCGAAAGAAAUAAAUAAAGCAGAAGGGUGAAGAA [Mat - Same State 1 - Tesla mod - D148] | 22.4
* GGAAAGAAAAGCGAGGAUAUGCUAGGUAAUACAUGAGGAUCACCCAUGUUUUUUUUUAACAAAUUGCAGAAGGCGCAAGAAAGAAA [Ungainly] | 16.5

Q: For AUAGGGACGUCGGAGGAUAUUCGAUGUAAAACAUGAGGAUCACCCAUGUGAAUAAAAUAAACAUGGAAGAAGGCCGACGUGCCAU [SS 2 M 54] , what is its reported apparent KD of MS2 coat protein?
Ans: 10.3

###

system: MS2 coat protein; assay: apparent KD of MS2 coat protein; higher = weaker reporter binding; conditions: Eterna round: R107; input ligand: theophylline 20 uM
READOUT LABEL: apparent KD of MS2 coat protein (nM)
The reply should contain only the number, in nM.

* GGGCGCUAUCCCGCGAGGGAUAGCGUUCGACGAGGACCGGUACGGCCGCCACUCGAACGAGUGGGUACAUGAGGAUCACCCAUGU [Gaa] | 50.9

Q: For CGCACAUGAGGAUCACCCAUGUGAGGGCGUCGAGGACCGGUACGGCCGCCACUCGCAGGACAUGAGGAUCACCCAUGUGCCGCCG [SSTA DOUBLE!!! :-D #4] , what is its reported apparent KD of MS2 coat protein?
Ans: 131

Q: For ACAUGAGGGCGAAGGAGCGCGAACAUGAGGAUCACCCAUGUGUAUGUAUGUUGUCAUGUAUCGCAGGUAGGUCGCGCUGUUACAU [Exclusion Arginine B] , what is its reported apparent KD of MS2 coat protein?
Ans: 245

Q: For GUUGGAUGCUCGGCCGCCACUGAGAGAGUCAUGUGAACAUGAGGAUCACCCAUGUAAUAUAUAUACAGGACCGGGAGUGUUGUAA [4.J] , what is its reported apparent KD of MS2 coat protein?
Ans: 50.6

Q: For AAGGUAUCACAGAGGUGAUUCAACUGUGAUACCAGCUAGGAAACUAGCCCUUGGCAGCACAUGAGGAUCACCCAUGUAAGAAUAA [(T)'-(M)'-(T1)-(T2)-(M1)-(M2)_Design3_2/19/17] , what is its reported apparent KD of MS2 coat protein?
Ans: 33.6

Q: For GCUGCCAUACGAAGGAGCGCUGCUGCGAUGUGGCGAACAUGAGGAUCACCCAUGUGGCAGCGGCAGGUAGGUCGCGUAUGGCAGC [#02 Exclusion - Arginine B] , what is its reported apparent KD of MS2 coat protein?
Ans: 330

Q: For GCGGACAUGAGGAUCACCCAUGUAAAUCCUCGAGGACCGGUACGGCCGCCACUCGAACGAGUGGCGCGCGCGCGCGCGCGCGCGC [aAa] , what is its reported apparent KD of MS2 coat protein?
Ans: 119

Q: For GUUGGUUUGGGAAGGAGCGGGUAUGUUGUCUACUUGAUCCUAACAUGAGGAUCACCCAUGUCCCAGGUAGGUCGCCCAAGCUUUG [12.aE] , what is its reported apparent KD of MS2 coat protein?
Ans: 152

Q: For AGCACUGUGGCGGCCGCCACUACAUAUAGGGUGGUCAGGCCCAUAAUACAUGAGGAUCACCCAUGUAGGACCGGGCCUCAGUGCA [Omei Trp Exc B A v13] , what is its reported apparent KD of MS2 coat protein?
Ans: 20

Q: For UGGAGAUAGACGGCCGCCACUAACAUGAGGAUCACCCAUGUCGUCACGAAUGGAUGGCCCUAGAAUAGGACCGGGUCCGGAUUCA [theeternabot_exclusion_MS2_Trp_B_48] , what is its reported apparent KD of MS2 coat protein?
Ans: 42.5

Q: For AUGGAGACCUCGGCCGCCACUCUCCAUGAGGAUCUCCCAUGUAACAUGAGGAUCACCCAUGUGCUGAGGACCGGGAGGUCCUGAA [Same State Tryptophan B GF 18] , what is its reported apparent KD of MS2 coat protein?
Ans: 15.8

Q: For AAGCUGCCAAGAACAUGGGUGAAAUGUGAUACCAGCUAGGAAACUAGCCCUUGGCAGCACAUGAGGAUCACCCAUGUAAUAAUAA [(T)'-(M)'-(T1)-(T2)-(M1)-(M2)_Design2_2/19/17] , what is its reported apparent KD of MS2 coat protein?
Ans: 264
